# measurement.target: Kappa-type opioid receptor (Homo sapiens, UniProt P41145)
# Sequence (P41145 whole entry): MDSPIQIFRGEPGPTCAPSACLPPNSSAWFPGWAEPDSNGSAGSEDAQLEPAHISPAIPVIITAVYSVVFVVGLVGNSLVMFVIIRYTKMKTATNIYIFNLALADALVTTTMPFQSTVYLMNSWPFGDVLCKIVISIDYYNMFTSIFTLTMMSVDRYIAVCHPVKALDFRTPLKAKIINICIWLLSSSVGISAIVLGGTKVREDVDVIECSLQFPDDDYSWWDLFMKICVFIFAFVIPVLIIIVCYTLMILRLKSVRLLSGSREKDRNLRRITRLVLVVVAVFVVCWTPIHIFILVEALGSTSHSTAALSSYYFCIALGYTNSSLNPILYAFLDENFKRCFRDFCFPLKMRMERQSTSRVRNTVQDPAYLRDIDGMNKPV
# assay.notes: Agonist activity at human KOR expressed in CHO-K1 cells co-expressing G-alpha15 upto 100 uM by calcium mobilization assay
# Type: functional, cell-based
Activity calls are given as the source filed them. The calls are words filed in the database; no cut-off is given here.

{"columns": ["structure", "Activity"],
 "data": [
  ["NC(=O)[C@@H]1CCCN1C(=O)[C@H]1CC(=O)NCCCC[C@@H](NC(=O)[C@@H](N)Cc2ccc(O)cc2)C(=O)NCC(=O)N[C@H](Cc2ccccc2)C(=O)N1", "inactive"],
  ["NC(=O)[C@@H]1CCCN1C(=O)[C@H]1CC(=O)NCCCC[C@@H](NC(=O)[C@@H](N)Cc2ccc(O)cc2)C(=O)NCC(=O)N[C@@H](c2ccccc2)C(=O)N1", "inactive"],
  ["NC(=O)[C@@H]1CCCN1C(=O)[C@H]1CC(=O)NCCCC[C@@H](NC(=O)[C@@H](N)Cc2ccc(O)cc2)C(=O)N2CCC[C@H]2C(=O)N[C@@H](Cc2ccccc2)C(=O)N1", "inactive"],
  ["NC(=O)[C@@H]1CCCN1C(=O)[C@H]1CC(=O)NCCCC[C@@H](NC(=O)[C@@H](N)Cc2ccc(O)cc2)C(=O)NCC(=O)N(Cc2ccccc2)CC(=O)N1", "inactive"],
  ["NC(=O)[C@@H]1CCCN1C(=O)[C@H]1CC(=O)NCCCC[C@@H](NC(=O)[C@@H](N)Cc2ccc(O)cc2)C(=O)NCC(=O)N[C@@H](Cc2ccc3ccccc3c2)C(=O)N1", "inactive"],
  ["NC(=O)[C@@H]1CCCN1C(=O)[C@H]1CC(=O)NCCCC[C@@H](NC(=O)[C@@H](N)Cc2ccc(O)cc2)C(=O)NCC(=O)N[C@@H](CCc2ccccc2)C(=O)N1", "inactive"]
]}
